Would you kindly list log10 of IC50 for each of these molecules?
TARGET OR SYSTEM: E. coli SPase (Escherichia coli, UniProt P00803)
Construct: Full length His-tagged E. coli and S. aureus SPase proteins were expressed in E. coli BL21; His tag; made in house; host or cells: E. coli BL21 (DE3)
Sequence (P00803 whole entry): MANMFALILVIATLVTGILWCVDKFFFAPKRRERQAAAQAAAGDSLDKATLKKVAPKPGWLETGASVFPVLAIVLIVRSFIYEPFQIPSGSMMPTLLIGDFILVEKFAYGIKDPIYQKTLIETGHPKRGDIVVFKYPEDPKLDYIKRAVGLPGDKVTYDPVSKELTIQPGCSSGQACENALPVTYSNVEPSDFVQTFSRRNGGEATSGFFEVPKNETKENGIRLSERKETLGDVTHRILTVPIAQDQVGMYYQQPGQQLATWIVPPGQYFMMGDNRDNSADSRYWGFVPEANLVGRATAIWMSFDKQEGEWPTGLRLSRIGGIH
EXPERIMENT NOTES: SPase enzyme inhibition assay, fluorogenic peptide substrate, E. coli
Assay type: biochemical
EXPERIMENTAL SETUP: 3 nM E. coli SPase, 20 μM substrate, 10 minutes pre-incubation, room temperature; read-out: IC 50 (nM) E. coli
Reminder: these figures are log10 of reported IC50, in nM before transformation.

MOLECULE	TARGET OR SYSTEM	RECORDED RESULT
CCCCc1ccc(-c2ccc(C(=O)NCC(C)C(=O)N[C@@H](CCN)C(=O)N(C)[C@@H]3C(=O)N[C@@H](C)C(=O)N[C@H](C(=O)O)Cc4ccc(O)c(c4)-c4cc3ccc4O)cc2)cc1 (single isomer, unassigned) [Compound 115]	E. coli SPase (Escherichia coli, UniProt P00803)	2.80
C[C@@H]1NC(=O)[C@@H](N(C)C(=O)[C@H](CCCCN)NC(=O)c2ccc(-c3ccc(Cl)cc3)cc2)c2ccc(O)c(c2)-c2cc(ccc2O)C[C@@H](C(=O)O)NC1=O [Compound 127]	E. coli SPase (Escherichia coli, UniProt P00803)	0.15

Would you mind listing log10 of IC50 for each of the following molecules?
1. CCCCCCCC(=O)NCCC(=O)N[C@@H](CCCCN)C(=O)N(C)[C@@H]1C(=O)N[C@@H](C)C(=O)N[C@H](C(=O)N[C@@H](C)B2O[C@@H]3C[C@@H]4C[C@@H](C4(C)C)[C@]3(C)O2)Cc2ccc(O)c(c2)-c2cc1ccc2O [Compound 123]
2. CCCCc1ccc(-c2ccc(C(=O)NCC(C)C(=O)N[C@@H](CCCCN)C(=O)N(C)[C@@H]3C(=O)N[C@@H](C)C(=O)N[C@H](C(=O)O)Cc4ccc(O)c(c4)-c4cc3ccc4O)cc2)cc1 (mixture of isomers) [Compound 104]
3. CCCCc1ccc(-c2ccc(C(=O)N[C@H](C)C(=O)N[C@@H](CCCCN)C(=O)N(C)[C@@H]3C(=O)N[C@@H](C)C(=O)N[C@H](C(=O)O)Cc4ccc(O)c(c4)-c4cc3ccc4O)cc2)cc1 [Compound 102]
4. CCCCc1ccc(-c2ccc(C(=O)NCCC(=O)N(C)[C@@H]3C(=O)N[C@@H](C)C(=O)N[C@H](C(=O)O)Cc4ccc(O)c(c4)-c4cc3ccc4O)cc2)cc1 [Compound 112]
5. CCCCCCCC(=O)N[C@@H](CCCCN)C(=O)N(C)[C@@H]1C(=O)N[C@@H](C)C(=O)N[C@H](C(=O)N[C@@H](C)B2O[C@@H]3C[C@@H]4C[C@@H](C4(C)C)[C@]3(C)O2)Cc2ccc(O)c(c2)-c2cc1ccc2O [Compound 125]
6. CCCCCCCC(=O)NCCC(=O)N[C@@H](CCCCN)C(=O)N(C)[C@@H]1C(=O)N[C@@H](C)C(=O)N[C@H](C(N)=O)Cc2ccc(O)c(c2)-c2cc1ccc2O [Compound 130]

[A]
[1.30, 0.57, 1.04, 2.93, 1.41, 2.20]

====

TARGET OR SYSTEM: S. aureus SPase (Staphylococcus aureus)
Construct: Full length His-tagged E. coli and S. aureus SPase proteins were expressed in E. coli BL21; His tag; made in house; host or cells: E. coli BL21 (DE3)
Sequence (P0A070 whole entry): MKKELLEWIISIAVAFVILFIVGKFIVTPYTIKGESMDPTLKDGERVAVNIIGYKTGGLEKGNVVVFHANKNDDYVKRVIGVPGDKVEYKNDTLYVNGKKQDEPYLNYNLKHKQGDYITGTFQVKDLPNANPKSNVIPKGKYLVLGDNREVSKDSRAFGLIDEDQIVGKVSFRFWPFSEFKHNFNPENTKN
EXPERIMENT NOTES: SPase enzyme inhibition assay, fluorogenic peptide substrate, S. aureus
Assay type: biochemical
Method: Briefly, for expression of E. coli SPase, saturated overnight cultures grown in 20 ml of Luria-Bertani medium supplemented with ampicillin were subcultures into 1.5 L of Luria-Bertani, and shaken at 37° C. until an optical density at 600 nm of 0.4-0.5 was achieved. […] S. aureus SPase was expressed and purified similarly, with the following exceptions. […] All protein concentrations were determined by BCA assay. […]
Positions of bridges follow the written chain, without caps; N, C: chain ends. Residues, ends and D or L forms follow the SMILES beside them. *: point of attachment. boroAla((+)-pinanediol) = C[C@H](N*)B1O[C@@H]2C[C@@H]3C[C@@H](C3(C)C)[C@]2(C)O1; Biphenylcarbonyl(4'-Bu) = CCCCc1ccc(-c2ccc(C(=O)*)cc2)cc1
Would you kindly list IC50 for each of these compounds?

COMPOUND	RECORDED RESULT
CCCCCCCC(=O)N[C@@H](CCCCN)C(=O)N(C)[C@@H]1C(=O)N[C@@H](C)C(=O)N[C@H](C(=O)N[C@@H](C)B2O[C@@H]3C[C@@H]4C[C@@H](C4(C)C)[C@]3(C)O2)Cc2ccc(O)c(c2)-c2cc1ccc2O [Compound 125]	64 nM
CCCCCCCC(=O)NCCC(=O)N[C@@H](CCCCN)C(=O)N(C)[C@@H]1C(=O)N[C@@H](C)C(=O)N[C@H](C(N)=O)Cc2ccc(O)c(c2)-c2cc1ccc2O [Compound 130]	580 nM
CCCCc1ccc(-c2ccc(C(=O)NCCC(=O)N(C)[C@@H]3C(=O)N[C@@H](C)C(=O)N[C@H](C(=O)O)Cc4ccc(O)c(c4)-c4cc3ccc4O)cc2)cc1 [Compound 112]	7200 nM
CCCCc1ccc(-c2ccc(C(=O)NC[C@@H](C)C(=O)N[C@@H](CCCCN)C(=O)N(C)[C@@H]3C(=O)N[C@@H](C)C(=O)N[C@H](C(=O)O)Cc4ccc(O)c(c4)-c4cc3ccc4O)cc2)cc1 [Compound 103]	8 nM
C[C@@H]1NC(=O)[C@@H](N(C)C(=O)[C@H](CCCCN)NC(=O)c2ccc(-c3ccc(Cl)cc3)cc2)c2ccc(O)c(c2)-c2cc(ccc2O)C[C@@H](C(=O)N[C@@H](C)C=O)NC1=O [Compound 134]	8.2 nM

Would you mind listing IC50 for each of the following compounds?
1. CCCCc1ccc(-c2ccc(C(=O)N[C@@H](CCCCN)C(=O)N(C)[C@@H]3C(=O)N[C@@H](C)C(=O)N[C@H](C(=O)N[C@@H](C)B4O[C@@H]5C[C@@H]6C[C@@H](C6(C)C)[C@]5(C)O4)CCCCCc4cc3ccc4OC)cc2)cc1 [Compound 208]
2. CCCCCCCCCCCCCC(=O)N[C@@H](CCCCN)C(=O)N(C)[C@@H]1C(=O)N[C@@H](C)C(=O)N[C@H](C(=O)N[C@@H](C)B(O)O)Cc2ccc(O)c(c2)-c2cc1ccc2O [Compound 119]
3. CNC(=O)[C@@H]1CCCN1C(=O)[C@H](C)NC(=O)[C@@H]1Cc2ccc(O)c(c2)-c2cc(ccc2O)[C@H](N(C)C(=O)[C@H](CCCCN)NC(=O)c2ccc(-c3ccc(Cl)cc3)cc2)C(=O)N[C@@H](C)C(=O)N1 [Compound 136]

[A]
1: > 10000 nM; 2: 33 nM; 3: 47 nM

Would you mind listing IC50 for each of the following compounds?
1. CCCCCCCC(=O)NCCC(=O)N[C@@H](CCCCN)C(=O)N(C)[C@@H]1C(=O)N[C@@H](C)C(=O)N[C@H](C(=O)N[C@@H](C)C(=O)N2CCC[C@H]2C(N)=O)Cc2ccc(O)c(c2)-c2cc1ccc2O [Compound 131]
2. CCCCc1ccc(-c2ccc(C(=O)NC(CCCCN)C(=O)N[C@H]3COCCCCOC[C@@H](C(=O)N[C@@H](C)B4O[C@@H]5C[C@@H]6C[C@@H](C6(C)C)[C@]5(C)O4)NC(=O)[C@H](C)NC3=O)cc2)cc1 (mixture of isomers) [Compound 206]
3. CCCCc1ccc(-c2ccc(C(=O)NCC(C)C(=O)N[C@@H](CCN)C(=O)N(C)[C@@H]3C(=O)N[C@@H](C)C(=O)N[C@H](C(=O)O)Cc4ccc(O)c(c4)-c4cc3ccc4O)cc2)cc1 (single isomer, unassigned) [Compound 114]
4. CCCCc1ccc(-c2ccc(C(=O)NCC(C)C(=O)N[C@@H](CCCCN)C(=O)N(C)[C@@H]3C(=O)N[C@@H](C)C(=O)N[C@H](C(=O)O)Cc4ccc(O)c(c4)-c4cc3ccc4O)cc2)cc1 (mixture of isomers) [Compound 104]
5. CCCCc1ccc(-c2ccc(C(=O)N[C@@H](CCCCN)C(=O)N[C@H]3CCC(=O)NCCCC[C@@H](C(=O)N[C@@H](C)B4O[C@@H]5C[C@@H]6C[C@@H](C6(C)C)[C@]5(C)O4)NC(=O)[C@H](C)NC3=O)cc2)cc1 [Compound 201] ({Biphenylcarbonyl(4'-Bu)}-KEAK-{boroAla((+)-pinanediol)}; lactam 2-4)
6. CCCCCCCC(=O)N[C@@H](CCCCN)C(=O)N(C)[C@@H]1C(=O)N[C@@H](C)C(=O)N[C@H](C(=O)O)Cc2ccc(O)c(c2)-c2cc1ccc2O [Compound 124]

[A]
1: 3.3 nM; 2: 600 nM; 3: 2200 nM; 4: 12 nM; 5: 150 nM; 6: 1000 nM

Would you mind listing IC50 for each of the following compounds?
1. CCCCc1ccc(-c2ccc(C(=O)NC[C@@H](C)C(=O)N[C@@H](CCCCN)C(=O)N(C)[C@@H]3C(=O)N[C@@H](C)C(=O)N[C@H](C(=O)N[C@@H](C)B4OC5C[C@@H]6C[C@@H](C6(C)C)[C@]5(C)O4)Cc4ccc(O)c(c4)-c4cc3ccc4O)cc2)cc1 (some centres unmarked) [Compound 120]
2. CCCCc1ccc(-c2ccc(C(=O)N(C)[C@@H]3C(=O)N[C@@H](C)C(=O)N[C@H](C(=O)O)Cc4ccc(O)c(c4)-c4cc3ccc4O)cc2)cc1 [Compound 116]
3. CCCCc1ccc(-c2ccc(C(=O)NCC(=O)N[C@@H](CCCCN)C(=O)N(C)[C@@H]3C(=O)N[C@@H](C)C(=O)N[C@H](C(=O)O)Cc4ccc(O)c(c4)-c4cc3ccc4O)cc2)cc1 [Compound 108]

[A]
1: 220 nM; 2: > 10000 nM; 3: 110 nM

Attribution: patent US9309285B2
